Test system: HCT 116 p53-/-
Experiment: Cytotoxicity / antiproliferative activity, MTS test
Assay type: cell-based
Conditions: Homo sapiens, 72-h incubation
Recorded pIC50 values for a group of compounds are listed next.
// pIC50 here means minus log10 of the molar concentration (mol/L)

1) CCCCc1ccc(NS(=O)(=O)c2ccc(C)c(C(=O)N3CCN(c4ccccc4OCCF)CC3)c2)cc1; 4.54

Now consider the entry below.
Incoming: Under HCT 116 p53-/-: pIC50 value of CCCCc1ccc(NS(=O)(=O)c2ccc(C)c(C(=O)N3CCN(c4ccccc4O)CC3)c2)cc1 ?
Outgoing: 4.56

----------
Recorded IC50 values for a group of compounds are listed next.
Tested on: K562
Experiment: Cytotoxicity / antiproliferative activity, MTS test
Format: cell-based
Conditions: Homo sapiens, 72-h incubation
Report as a plain number; the unit µM is understood.

1. CCCCc1ccc(NS(=O)(=O)c2ccc(C)c(C(=O)N3CCN(c4ccccc4O)CC3)c2)cc1; 12.7

Now consider the entry below.
Incoming: Which IC50 is listed for CCCCc1ccc(NS(=O)(=O)c2ccc(C)c(C(=O)N3CCN(c4ccccc4OCCF)CC3)c2)cc1 ?
Outgoing: 17.3
